test summary: Stability and biodistribution of prodrugs in vivo (HPLC of plasma and tissues)
Parameters: species or system mice (CD-1 nude; BALB/C where indicated)
assay conditions: mouse, plasma, 50 mg/kg, PLASMA, 30 min, 50 mg/kg i.p. or i.v., CD-1 nude mice; read-out: concentration of prodrug in plasma
Records here are stratified by concentration at 0.5 h; strata: low class = under 20 µM, middle class = from 20 µM up to 40 µM, high class = 40 µM and over

molecule | group label
Cc1nc2ccc3ccc(CNc4ccc(C(=O)N[C@@H](CCC(=O)O)C(=O)N[C@@H](Cc5ccccc5C(=O)O)C(=O)O)c(F)c4)cc3c2c(=O)[nH]1 [Prodrug 4] | high class
CN(Cc1cnc2nc(N)nc(N)c2n1)c1ccc(C(=O)N[C@@H](CCC(=O)O)C(=O)N[C@@H](Cc2cccc(C3CCCC3)c2)C(=O)O)cc1 [Prodrug 9] | low class
Cc1nc2ccc3ccc(CNc4ccc(C(=O)N[C@@H](CCC(=O)O)C(=O)N[C@@H](Cc5ccccc5I)C(=O)O)c(F)c4)cc3c2c(=O)[nH]1 [Prodrug 5] | high class

q: Looking at Cc1nc2ccc3ccc(CNc4ccc5c(c4)CN([C@@H](CCC(=O)O)C(=O)N[C@@H](Cc4ccccc4)C(=O)O)C5=O)cc3c2c(=O)[nH]1 [Prodrug 2] , which class would you pick?
a: middle class

q: Pick a category. Item: CN(Cc1cnc2nc(N)nc(N)c2n1)c1ccc(C(=O)N[C@@H](CCC(=O)O)C(=O)N[C@@H](Cc2cccc(C(C)(C)C)c2)C(=O)O)cc1 [Prodrug 12]
a: low class

q: Returns: class label. Input: CN(Cc1cnc2nc(N)nc(N)c2n1)c1ccc(C(=O)N[C@@H](CCC(=O)O)C(=O)N[C@@H](Cc2ccccc2C2CCCC2)C(=O)O)cc1 [Prodrug 8]
a: middle class

q: Category lookup for the molecule CN(Cc1cnc2nc(N)nc(N)c2n1)c1ccc(C(=O)N[C@@H](CCC(=O)O)C(=O)N[C@@H](Cc2ccccc2)C(=O)O)cc1 [Prodrug 10, reference compound]
a: low class

q: Category of Cc1nc2ccc3ccc(CNc4ccc(C(=O)N[C@@H](CCC(=O)O)C(=O)N[C@@H](CCC(=O)O)C(=O)O)c(F)c4)cc3c2c(=O)[nH]1 [Prodrug 1] , please.
a: high class

q: Please let me know in which category the item Nc1nc(N)c(CCCNc2ccc(C(=O)N[C@@H](CCC(=O)O)C(=O)N[C@@H](Cc3cccc(C4CCCC4)c3)C(=O)O)cc2)c(=O)[nH]1 [Prodrug 14] belongs.
a: low class

q: Field: class (concentration at 0.5 h) — entry: CN(Cc1cnc2nc(N)nc(N)c2n1)c1ccc(C(=O)N[C@@H](CCC(=O)O)C(=O)N[C@@H](CC(=O)O)C(=O)O)cc1 [Prodrug 6]
a: high class

q: Categorize the following entry: CN(Cc1cnc2nc(N)nc(N)c2n1)c1ccc(C(=O)N[C@@H](CCC(=O)O)C(=O)N[C@@H](Cc2ccccc2C(=O)O)C(=O)O)cc1 [Prodrug 7]
a: high class

q: Returns: class label. Input: CN(Cc1cnc2nc(N)nc(N)c2n1)c1ccc(C(=O)N[C@@H](CCC(=O)O)C(=O)N[C@@H](Cc2ccc(O)c(C3CCCC3)c2)C(=O)O)cc1 [Prodrug 13]
a: low class

q: Pick a category. Item: CN(Cc1cnc2nc(N)nc(N)c2n1)c1ccc(C(=O)N[C@@H](CCC(=O)O)C(=O)N[C@@H](Cc2cccc(C3CCC3)c2)C(=O)O)cc1 [Prodrug 11]
a: middle class

Reference source: patent US6319702A
